System: DUX4
Test: High-content immunocytochemistry assay of endogenous DUX4 expression in differentiating primary FSHD myotubes
Format: cell-based, human
Details: Homo sapiens, Myotube, 15 h, read-out: half maximal effective concentration (EC50), DUX4 repression
assay readout: EC50

Entry CN1Cc2nccc(-c3cn(C)nc3-c3ccc(F)cc3)c2C1=O ; assay system DUX4; EC50 recorded at 1900 to 3100 nM

Entry Fc1cccc(-n2cnc3c(NCc4nc5ccc(F)c(F)c5[nH]4)nc(N4CCOCC4)nc32)c1 [SR-3029, reference compound] ; assay system DUX4; EC50 recorded at 50 to 120 nM

Entry CNCc1cc(-c2cn(C)nc2-c2ccc(F)cc2)ccn1 ; assay system DUX4; EC50 recorded at 3100 to 5500 nM
